Test system: human cervical cancer cell Hela
Test method notes: MTT anticancer assay, Hela
Format: cell-based
Experimental context: MTT, 48 h exposure, mean ± SD, read-out: IC50 Hela
Friendly reminder: IC50 below 4 µM is Fulfilled, at or above is Not fulfilled.

The following compounds have reported results that may help.
COc1cc(OC)c2c(=O)c(OCCCCN3CCN(C(=O)c4cccc(F)c4)CC3)c(-c3cc(OC)c(OC)c(OC)c3)oc2c1 | Not fulfilled
COc1cc(OC)c2c(=O)c(OCCCCN3CCN(C(=O)c4cc([N+](=O)[O-])cc([N+](=O)[O-])c4)CC3)c(-c3cc(OC)c(OC)c(OC)c3)oc2c1 | Fulfilled
COc1cc(OC)c2c(=O)c(OCCCCN3CCN(C(=O)c4c(F)cccc4F)CC3)c(-c3cc(OC)c(OC)c(OC)c3)oc2c1 | Not fulfilled
COc1cc(OC)c2c(=O)c(OCCCCN3CCN(C(=O)c4cc(Cl)ccc4[N+](=O)[O-])CC3)c(-c3cc(OC)c(OC)c(OC)c3)oc2c1 | Fulfilled
COc1cc(OC)c2c(=O)c(OCCCCN3CCN(C(=O)c4ccc(Cl)cc4)CC3)c(-c3cc(OC)c(OC)c(OC)c3)oc2c1 | Not fulfilled

Determine whether this compound shows IC50 lower than 4 µM (ties excluded): COc1cc(OC)c2c(=O)c(OCCCCN3CCN(C(=O)c4ccncc4)CC3)c(-c3cc(OC)c(OC)c(OC)c3)oc2c1
Fulfilled
